assay: TNF-a-driven NF-kB reporter inhibitors, primary screen, selectivity assay for NOD1/NOD2 signaling inhibitor project, cell-based, HEK293T NF-kB-Luc, luminescence (AID 1852); conditions: TNF-a induced, 14 h, at 4 µM, stronger effect = higher value
About 1,100 (44%) of roughly 2,500 compounds were called active. So high a share suggests a set chosen from earlier hits. The list shows a part of the results.
# cutoff 40% applies to inhibition; >= gives YES, < gives NO

| COMPOUND | LABEL_VALUE |
| --- | --- |
| Cc1ccccc1/C=C1\Sc2ccc(C(=O)N3CCN(c4ccccn4)CC3)cc2N(C)C1=O | NO |
| COc1ccc(/C=C/C(=O)C2CC2)cc1Cn1nc(C)c([N+](=O)[O-])c1C | NO |
| C=C1CC2C(CCC3(C)C2CCC3(O)C(C)=O)C2(C)CCC(=O)C=C12 (stereo unspecified) | NO |
| COc1ccc(NC(=O)/C(Cl)=C(/Cl)S(=O)(=O)Cc2ccc(C)cc2)cn1 | YES |
| Cc1c(-c2ccccc2)oc2c(C(=O)N3CCN(c4ccc([N+](=O)[O-])cc4)CC3)cccc2c1=O | YES |

Next, consider the following compound.
Asked: Threshold query (inhibition >= 40%) on O=C(N/N=C/c1cc(Br)c(Br)s1)c1ccncc1
Given back: NO

###

test: TNF-a-driven NF-kB reporter inhibitors, primary screen, selectivity assay for NOD1/NOD2 signaling inhibitor project, cell-based, HEK293T NF-kB-Luc, luminescence (AID 1852); conditions: TNF-a induced, 14 h, at 4 µM, stronger effect = higher value
About 1,100 (44%) of roughly 2,500 compounds were called active. The set was probably picked from earlier hits. The list shows a part of the results.
MEASUREMENT_NAME: inhibition

| COMPOUND | inhibition |
| --- | --- |
| COc1cc(C2CC(c3cccs3)=NN2C(=O)CCl)ccc1OC(F)F (stereo unspecified) | 40.7% (inactive) |
| O=C(CCl)N1N=C(c2cccs2)CC1c1ccco1 (stereo unspecified) | 55.2% (active) |
| O=C(CCl)N1N=C(c2ccco2)CC1c1cccs1 (stereo unspecified) | 56% (active) |

Entry Cc1ccnc(OC(C(=O)O)C(OCc2ccccc2)(c2ccc(F)cc2)c2ccc(F)cc2)n1 (stereo unspecified) ; inhibition = -7.9% (inactive)

Entry Oc1ccc(N=Nc2ccccc2C(F)(F)F)c2cccnc12 ; inhibition = 20.4% (inactive)

Entry COc1ccc(C2CC(c3cccs3)=NN2C(=O)CCl)cc1OC (stereo unspecified) ; inhibition = 47.4% (inactive)

###

experiment: TNF-a-driven NF-kB reporter inhibitors, primary screen, selectivity assay for NOD1/NOD2 signaling inhibitor project, cell-based, HEK293T NF-kB-Luc, luminescence (AID 1852); conditions: TNF-a induced, 14 h, at 4 µM
The whole screen tested about 2,500 compounds, of which about 1,100 (44%) were called active.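 Rule for the calls: active = inhibition above 50% at 4 µM in the single-point screen; inactive = inhibition of 50% or less.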 The set was probably picked from earlier hits. The list shows a part of the results.
Lab note: assign the record to one of 1 for active, -1 for inactive

Below, 4 molecules whose answers are already recorded.
| SMILES_REPRESENTATION | LABEL_VALUE |
| --- | --- |
| Cc1ccccc1CN(CC(=O)Nc1cccc([N+](=O)[O-])c1)S(=O)(=O)c1ccc(Cl)cc1 | -1 |
| Cc1ccc(NC(=S)NC(=O)c2ccc(F)cc2)cc1S(=O)(=O)Nc1cccc(Cl)c1 | -1 |
| O=c1cc(-c2ccccc2)nc2cc(-c3ccc(Br)cc3)[nH]n12 | -1 |
| O=[N+]([O-])c1cccc(NC(=S)Nc2nc(-c3ccc(Cl)cc3Cl)cs2)c1 | 1 |

Asked: State the result this test recorded for Cc1ccccc1-n1cnc2c(sc3nc(N4CCOCC4)c4c(c32)CCCC4)c1=O .
Given back: -1

###

test: TNF-a-driven NF-kB reporter inhibitors, primary screen, selectivity assay for NOD1/NOD2 signaling inhibitor project, cell-based, HEK293T NF-kB-Luc, luminescence (AID 1852); conditions: TNF-a induced, 14 h, at 4 µM, stronger effect = higher value
Screen size: about 2,500 compounds; about 1,100 (44%) were called active. The set was probably picked from earlier hits. The list shows a part of the results.
Listed here are molecules together with their documented inhibition.
Report as a plain number; the unit % is understood.

| MOLECULE | MEASUREMENT_NAME | VALUE |
| --- | --- | --- |
| Cc1csc2c(N3CCN(C(=O)Nc4ccc(Cl)c(Cl)c4)CC3)ncnc12 | inhibition | 52.5 |
| C/C(=N/NC(=S)Nc1cccc(C)c1)c1cccc([N+](=O)[O-])c1 | inhibition | 6.4 |
| Cc1[nH]n(-c2ccccc2)c(=O)c1/C=N/NC(=O)c1cccc(F)c1 | inhibition | -0.8 |
| Fc1ccc(NC(=S)NNc2ncc(C(F)(F)F)cc2Cl)c(F)c1 | inhibition | 49.4 |
| CCC(C)c1ccc(C(C)NC(=S)NC2CCCCC2)cc1 (stereo unspecified) | inhibition | 21.1 |

Entry Cc1cccc(/C=N/NC(=O)c2cccc([N+](=O)[O-])c2)n1 ; inhibition = 97.4

Entry Cc1ccc(NC(=O)C2CCN(c3ncnc4c3nc3n4CCCCC3)CC2)cc1Cl ; inhibition = 31.7

Entry Cc1ccc(-n2[nH]c(C)c(/C=N/Nc3ccc([N+](=O)[O-])cc3[N+](=O)[O-])c2=O)cc1C ; inhibition = 83.2

Entry Cc1[nH]n(-c2ccccc2)c(=O)c1/C=N/NC(=O)c1cccc([N+](=O)[O-])c1 ; inhibition = 76.8

Entry Cc1ccc(NC(=O)C2CCCN(c3ncnc4c3nc3n4CCCCC3)C2)nc1 (stereo unspecified) ; inhibition = 92.6

Entry CCCCNC(=S)Nc1ccc(C(F)(F)F)cc1 ; inhibition = -47.5

###

experiment: TNF-a-driven NF-kB reporter inhibitors, primary screen, selectivity assay for NOD1/NOD2 signaling inhibitor project, cell-based, HEK293T NF-kB-Luc, luminescence (AID 1852); conditions: TNF-a induced, 14 h, at 4 µM, stronger effect = higher value
Hit rate of the full screen: of about 2,500 compounds, about 1,100 (44%) were called active. So high a share suggests a set chosen from earlier hits. The list shows a part of the results.
Records here are stratified by inhibition; strata: low class: < 30%; middle class: ≥ 30% and < 90%; high class: ≥ 90%

| MOLECULE | LABEL_VALUE |
| --- | --- |
| CC(C)Cc1ccc(S(=O)(=O)Nc2ccccn2)cc1 | low class |
| CCS(=O)(=O)c1ncc(Cl)c(C(=O)Nc2ccc(C)cc2)n1 | high class |

Next, consider the following molecule.
Asked: Kindly identify the class of CN(c1ccccc1)S(=O)(=O)c1ccc(NC(=O)c2nc(S(C)(=O)=O)ncc2Cl)cc1 .
Given back: middle class

###

test: TNF-a-driven NF-kB reporter inhibitors, primary screen, selectivity assay for NOD1/NOD2 signaling inhibitor project, cell-based, HEK293T NF-kB-Luc, luminescence (AID 1852); conditions: TNF-a induced, 14 h, at 4 µM
The campaign covered roughly 2,500 compounds. About 1,100 (44%) were called active.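 How the source made its calls: active means inhibition above 50% at 4 µM in the single-point screen; inactive means inhibition of 50% or less.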 So high a share suggests a set chosen from earlier hits. The list shows a part of the results.
Lab note: assign the record to one of YES (active), NO (inactive)

Below, 5 compounds whose answers are already recorded.
| COMPOUND | LABEL_VALUE |
| --- | --- |
| COc1ccc2cc3c(N)nn(C(=O)c4ccc(Cl)c([N+](=O)[O-])c4)c3nc2c1 | NO |
| Cc1c(Nc2c3ccccc3nc3ccccc23)c(=O)n(-c2ccccc2)n1C | NO |
| CC(C)(C)OC(=O)N1Cc2ccccc2C[C@H]1C(=O)NCC(=O)NC1CCCC1 | NO |
| COc1ccc(CN(C)S(=O)(=O)c2nnc(NC(=O)c3cccc(F)c3)s2)cc1 | NO |
| Fc1cccc(NC(=S)NNc2c3ccccc3nc3ccccc23)c1 | NO |

Next, consider the following compound.
Asked: State the result this test recorded for O=C(Nc1ccccc1)C1=C(c2ccccc2)S(=O)(=O)CCS1(=O)=O .
Given back: YES

###

Listed here are molecules together with their documented inhibition.
test: TNF-a-driven NF-kB reporter inhibitors, primary screen, selectivity assay for NOD1/NOD2 signaling inhibitor project, cell-based, HEK293T NF-kB-Luc, luminescence (AID 1852); settings: TNF-a induced, 14 h, at 4 µM, stronger effect = higher value
About 1,100 (44%) of roughly 2,500 compounds were called active. The set was probably picked from earlier hits. The list shows a part of the results.
Report as a plain number; the unit % is understood.

| SMILES_REPRESENTATION | inhibition, % |
| --- | --- |
| COc1ccc(-c2c(C(F)(F)F)[nH]n3c(=O)cc(-c4ccccc4)nc23)cc1 | 55.7 |
| COc1ccc(-c2nc(NC(C)=O)sc2-c2ccccc2)cc1 | 58.1 |
| CCCS(=O)(=O)c1nnnn1-c1cccc(OC)c1 | 76.1 |
| CCS(=O)(=O)c1nnnn1-c1ccccc1S(C)(=O)=O | 43.2 |
| Cc1ccc(CS(=O)(=O)c2ncc(Cl)c(C(=O)Nc3nnc(C(C)C)s3)n2)cc1 | 85.6 |

Entry O=c1cc(-c2ccccc2)nc2c(-c3ccccc3)c(C(F)(F)F)[nH]n12 ; inhibition = 73.9

Entry CSc1nnc(NC(=O)c2nc(S(=O)(=O)Cc3ccc(C)cc3)ncc2Cl)s1 ; inhibition = 98.9

Entry Cn1c(Sc2ccc(Cl)cc2)c(C=O)c2ccccc21 ; inhibition = 34.4

Entry Cc1ccc(Sc2c(C=O)c3ccccc3n2C)cc1 ; inhibition = 86.4

Entry Cc1cccc(Sc2c(C=O)c3ccccc3n2C)c1 ; inhibition = 60.5

Entry Cc1ccc(-c2ccc(=O)n(Cc3ccc(F)cc3)n2)cc1 ; inhibition = -22.8
